Molecular target: T1, recombinant, soluble human ASGR-1 (human, UniProt P07306 62-291)
T1 construct: biotinylated in the binning assay; also called soluble huASGR-1; Soluble ASGR-1 (Amgen)
T1 sequence: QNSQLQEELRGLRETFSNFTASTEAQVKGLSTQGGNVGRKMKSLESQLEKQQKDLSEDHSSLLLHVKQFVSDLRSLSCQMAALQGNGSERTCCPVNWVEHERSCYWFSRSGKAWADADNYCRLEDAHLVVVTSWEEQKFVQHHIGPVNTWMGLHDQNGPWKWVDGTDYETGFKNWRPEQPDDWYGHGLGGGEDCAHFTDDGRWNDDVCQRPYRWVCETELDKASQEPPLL
Test: Octet BLI dissociation, pH 7.4 minus calcium
Protocol: The relative dissociation of ASGR-1 from antibodies was measured using a label-free assay on an OctetHTX instrument (Fortebio). Antibody samples were captured on anti-HuFc kinetic biosensors (ForteBio cat #18-5064) at 5 ug/mL in assay buffer (10 mM Tris, 0.1% Triton, 150 mM NaCl, 1 mg/mL BSA, 1 mM CaCl2, pH7.4) for three minutes. […] Soluble ASGR-1 (Amgen) at 6 ug/ml in assay buffer was added and association to the antibodies was monitored for two minutes. […]
Measured Parameter: % Change Compared to pH 7.4 + Calcium (%)
Just the number please, in %, no unit attached.

Binder: 194C10 (antibody, V domains shown, hybridoma mAb) VH: QVQLQQWGAGLLKPSETLSLTCAVSGGSFRYYYWSWIRQPPGKGLEWFGEINHSGSTNYNPSLKSRVTISIDTSKNQFSLKLRSVTAADTAVYYCARDYGAFDIWGQGTMVTVSS VL: EIVLTQSPGTLSLSPGERATLSCRASPSVNSGYLAWYQQKPGQTPRLLIFGASSRATGIPDRFSASGSGADFTLTISRLEPEDFAVYFCQQYESSPWTFGQGTKVEIK
% Change Compared to pH 7.4 + Calcium / %: 2

Now let's try a different one.
Q: Param item = 191G12 (antibody, V domains shown, hybridoma mAb) VH: QVQLVESGGGVVQPGRSLRLSCAASGFTFSSYGMHWVRQAPGKGLEWVAVIWYDGSNKNYADSVKGRFTISRDNSKNTLYLQMNSLRAEDTAVYYCARDQGVGYDGLDVWGQGTTVTVSS VL: DIQMTQSPSSLSASVGDRVTITCRTSQGIGNYLAWFQQKPGKAPKSLLYKASSLQSGVPSKFSGSGSGTDFTLTISSLQPEDFATYYCQQYITYPLTFGGGSKVEIK ; retrieve measured % Change Compared to pH 7.4 + Calcium.
Ans: -2
